target: human isoQC (Homo sapiens, UniProt Q9NXS2, C369A/I73N); assay: Kinetic evaluation of peptide substrates of human isoQC; format: biochemical; parameters: The cDNA of the mature human isoQC starting with codon 30 (counting from methionine II); His6 (C-His) (C); yeast alpha-factor secretion signal (YSS) (N); made in house; host or cells: Pichia pastoris X-33; settings: human isoQC expressed in P. pastoris (YSShisoQC)
Sequence (Q9NXS2 48-382 I73N/C369A): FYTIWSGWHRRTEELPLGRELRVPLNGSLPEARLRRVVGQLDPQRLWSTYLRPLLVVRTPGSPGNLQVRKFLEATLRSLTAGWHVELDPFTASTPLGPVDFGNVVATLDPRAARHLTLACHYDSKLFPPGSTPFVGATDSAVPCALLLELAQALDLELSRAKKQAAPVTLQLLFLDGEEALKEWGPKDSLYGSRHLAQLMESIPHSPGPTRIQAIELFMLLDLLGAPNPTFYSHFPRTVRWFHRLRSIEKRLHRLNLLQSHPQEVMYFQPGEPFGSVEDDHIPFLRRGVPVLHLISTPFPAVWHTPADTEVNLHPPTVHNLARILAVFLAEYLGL
Peptide text beside a SMILES is read from it.
I'd appreciate it if you could supply log10 of Km values for the items below.
All values: log10 Km [mM].

Prompt line: I would be grateful if you could share the reported log10 of Km for CC(C)C[C@H](NC(=O)[C@H](CC(=O)O)NC(=O)[C@H](CCC(=O)O)NC(=O)[C@@H](N)CCC(N)=O)C(=O)O [QEDL] (H-QEDL-OH) .
Response line: -0.80

Prompt line: I would be grateful if you could share the reported log10 of Km for C[C@H](NC(=O)[C@H](Cc1ccccc1)NC(=O)[C@@H](N)CCC(N)=O)C(=O)O [QFA] (H-Gln-Phe-Ala-OH) .
Response line: -0.98

Prompt line: I would be grateful if you could share the reported log10 of Km for NC(=O)CC[C@H](N)C(=O)N[C@@H](CCC(=O)O)C(=O)O [QE] (H-Gln-Glu-OH) .
Response line: -0.21

Prompt line: I would be grateful if you could share the reported log10 of Km for Cc1cc(=O)oc2cc(NC(=O)[C@@H](N)CCC(N)=O)ccc12 [Q-AMC, H-Gln-AMC] .
Response line: -1.52

Prompt line: I would be grateful if you could share the reported log10 of Km for NC(=O)CC[C@H](NC(=O)[C@@H](N)CCC(N)=O)C(=O)O [QQ] (H-Gln-Gln-OH) .
Response line: -0.96

Prompt line: I would be grateful if you could share the reported log10 of Km for NC(=O)CC[C@H](N)C(=O)Nc1ccc2ccccc2c1 [Q-βNA, H-Gln-βNA] .
Response line: -1.46

Prompt line: I would be grateful if you could share the reported log10 of Km for NC(=O)CC[C@H](N)C(=O)NCC(=O)O [QG] (H-Gln-Gly-OH) .
Response line: -0.44

----------
biological target: human QC (Homo sapiens, UniProt Q16769); test: Inhibitor assay, human QC (Ki/IC50, competitive inhibition); details: read-out: Ki (μM) hQC; competitive inhibition
Sequence (Q16769 29-361): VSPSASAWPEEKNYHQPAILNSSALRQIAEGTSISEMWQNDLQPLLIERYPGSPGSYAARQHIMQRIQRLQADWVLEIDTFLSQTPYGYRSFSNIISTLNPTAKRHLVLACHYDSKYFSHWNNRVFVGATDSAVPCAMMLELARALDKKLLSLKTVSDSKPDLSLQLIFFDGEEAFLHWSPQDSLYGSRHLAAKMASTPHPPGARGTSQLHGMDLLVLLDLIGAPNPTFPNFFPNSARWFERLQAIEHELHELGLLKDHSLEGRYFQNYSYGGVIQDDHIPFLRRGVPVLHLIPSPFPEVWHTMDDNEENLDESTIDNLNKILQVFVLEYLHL
measurement label: Ki
Number first, unit second.

Prompt line: I would be grateful if you could share the reported Ki for c1ccc2[nH]cnc2c1 .
Response line: 138 µM

----------
I'd appreciate it if you could supply IC50 values for the items below.
target: human isoQC (Homo sapiens, UniProt Q9NXS2, C369A/I73N); assay: Inhibitor assay, human isoQC (Ki/IC50, competitive inhibition)
API: value field is a number in nM; no unit string.

Prompt line: I would be grateful if you could share the reported IC50 for O=C1NC(=O)N(c2ccc3[nH]cnc3c2)C1c1ccc2c(c1)OCCO2 (centres unmarked) [Example 16] .
Response line: 57.6

Prompt line: I would be grateful if you could share the reported IC50 for O=C1NC(=O)N(c2ccc3[nH]cnc3c2)C1c1cccc(Cl)c1 (centres unmarked) [Example 12] .
Response line: 58

Prompt line: I would be grateful if you could share the reported IC50 for COc1ccc(C2C(=O)NC(=O)N2c2ccc3[nH]cnc3c2)cc1O (centres unmarked) [Example 9] .
Response line: 30.3

Prompt line: I would be grateful if you could share the reported IC50 for O=C1NC(=S)C(c2ccc(Cl)cc2)N1c1ccc2[nH]cnc2c1 (centres unmarked) [Example 40] .
Response line: 58.3

Prompt line: I would be grateful if you could share the reported IC50 for O=C1NC(=O)N(c2ccc3[nH]cnc3c2)C1c1cc(C(F)(F)F)ccc1F (centres unmarked) [Example 4] .
Response line: 150
